Test system: Staphylococcus aureus
Test: Antibacterial activity against Vancomycin-resistant Staphylococcus aureus 10 incubated for 18 to 20 hrs by broth microdilution method
Type: functional
Settings: time 18-20 hrs
MIC strictly less than 8 µg/mL = satisfied. Otherwise not satisfied.

[[record]]
molecule = "C/C(=N\\NC(=N)N)c1ccc(NC(=O)Nc2ccc(-c3cccs3)cc2)cc1"
cat = "not satisfied"

[[record]]
molecule = "CC(=O)NC[C@H]1CN(c2ccc(N3CCOCC3)c(F)c2)C(=O)O1 [LINEZOLID]"
cat = "satisfied"

[[record]]
molecule = "CN[C@H](CC(C)C)C(=O)N[C@H]1C(=O)N[C@@H](CC(N)=O)C(=O)N[C@H]2C(=O)N[C@H]3C(=O)N[C@H](C(=O)N[C@H](C(=O)O)c4cc(O)cc(O)c4-c4cc3ccc4O)[C@H](O)c3ccc(c(Cl)c3)Oc3cc2cc(c3O[C@@H]2O[C@H](CO)[C@@H](O)[C@H](O)[C@H]2O[C@H]2C[C@](C)(N)[C@H](O)[C@H](C)O2)Oc2ccc(cc2Cl)[C@H]1O [VANCOMYCIN]"
cat = "not satisfied"

[[record]]
molecule = "C/C(=N\\NC(=N)N)c1ccc(NC(=O)Nc2ccc(-c3ccco3)cc2)cc1"
cat = "satisfied"


====

# MIC values compiled below
Test system: Staphylococcus aureus
Assay: Antibacterial activity against methicillin-resistant Staphylococcus aureus NRS 385 (USA500) incubated for 18 to 20 hrs by broth microdilution method
Type: functional
Details: time 18-20 hrs
measured endpoint: MIC

[[record]]
molecule_smiles = "C/C(=N\\NC(=N)N)c1ccc(NC(=O)Nc2ccc(/C=C/c3ccccc3)cc2)cc1"
test_system = "Staphylococcus aureus"
measured_endpoint = "MIC"
reported = "8 µg/mL"

[[record]]
molecule_smiles = "C/C(=N\\NC(=N)N)c1ccc(NC(=O)Nc2ccc(-c3ccco3)cc2)cc1"
test_system = "Staphylococcus aureus"
measured_endpoint = "MIC"
reported = "8 µg/mL"

[[record]]
molecule_smiles = "C/C(=N\\NC(=N)N)c1ccc(NC(=O)Nc2ccc(/C=C/CC(C)C)cc2)cc1"
test_system = "Staphylococcus aureus"
measured_endpoint = "MIC"
reported = "4 µg/mL"

[[record]]
molecule_smiles = "C/C(=N\\NC(=N)N)c1ccc(NC(=O)Nc2ccc(-c3cccs3)cc2)cc1"
test_system = "Staphylococcus aureus"
measured_endpoint = "MIC"
reported = "8 µg/mL"

[[record]]
molecule_smiles = "C/C(=N\\NC(=N)N)c1ccc(NC(=O)Nc2ccc(/C=C/C3CCCCC3)cc2)cc1"
test_system = "Staphylococcus aureus"
measured_endpoint = "MIC"
reported = "8 µg/mL"


====

Tested on: Staphylococcus aureus
Experiment: Antibacterial activity against methicillin-resistant Staphylococcus aureus USA400 NRS 123 assessed as time of post-antibiotic effect at 5 times MIC incubated for 2 hrs followed by compound washout and measured every single 1 hr
Format: functional
Reported Time values for the following compounds.
measured endpoint: Time (h)

[[record]]
molecule_smiles = "C/C(=N\\NC(=N)N)c1ccc(NC(=O)Nc2ccc(/C=C/CC(C)C)cc2)cc1"
reported = 5

[[record]]
molecule_smiles = "CN[C@H](CC(C)C)C(=O)N[C@H]1C(=O)N[C@@H](CC(N)=O)C(=O)N[C@H]2C(=O)N[C@H]3C(=O)N[C@H](C(=O)N[C@H](C(=O)O)c4cc(O)cc(O)c4-c4cc3ccc4O)[C@H](O)c3ccc(c(Cl)c3)Oc3cc2cc(c3O[C@@H]2O[C@H](CO)[C@@H](O)[C@H](O)[C@H]2O[C@H]2C[C@](C)(N)[C@H](O)[C@H](C)O2)Oc2ccc(cc2Cl)[C@H]1O"
reported = 3

[[record]]
molecule_smiles = "C/C(=N\\NC(=N)N)c1ccc(NC(=O)Nc2ccc(/C=C/C3CCCCC3)cc2)cc1"
reported = 6

[[record]]
molecule_smiles = "C/C(=N\\NC(=N)N)c1ccc(NC(=O)Nc2ccc(-c3ccco3)cc2)cc1"
reported = 5

[[record]]
molecule_smiles = "C/C(=N\\NC(=N)N)c1ccc(NC(=O)Nc2ccc(/C=C/c3ccccc3)cc2)cc1"
reported = 3

[[record]]
molecule_smiles = "C/C(=N\\NC(=N)N)c1ccc(NC(=O)Nc2ccc(-c3cccs3)cc2)cc1"
reported = 3


====

# viability at 24 h listing for each entry below
Experiment: Cytotoxicity against human Caco-2 cells assessed as cell viability at upto 128 ug/ml incubated for 24 hrs by MTS assay relative to control
Assay type: toxicity, cell-based
Conditions: up to 128 µg/mL, read-out: Activity
measured endpoint: viability at 24 h (%)

[[record]]
molecule_smiles = "C/C(=N\\NC(=N)N)c1ccc(NC(=O)Nc2ccc(/C=C/C3CCCCC3)cc2)cc1"
measured_endpoint = "viability at 24 h"
reported = 100

[[record]]
molecule_smiles = "C/C(=N\\NC(=N)N)c1ccc(NC(=O)Nc2ccc(-c3cccs3)cc2)cc1"
measured_endpoint = "viability at 24 h"
reported = 100

[[record]]
molecule_smiles = "C/C(=N\\NC(=N)N)c1ccc(NC(=O)Nc2ccc(-c3ccco3)cc2)cc1"
measured_endpoint = "viability at 24 h"
reported = 100


====

System: Staphylococcus aureus
Assay: Antibacterial activity against Vancomycin-resistant Staphylococcus aureus 10 incubated for 18 to 20 hrs by broth microdilution method
Type: functional
Conditions: time 18-20 hrs
measured endpoint: MIC (µg/mL)

[[record]]
molecule_smiles = "C/C(=N\\NC(=N)N)c1ccc(NC(=O)Nc2ccc(/C=C/CC(C)C)cc2)cc1"
test_system = "Staphylococcus aureus"
measured_endpoint = "MIC"
unit_symbol = "µg/mL"
reported = 8

[[record]]
molecule_smiles = "C/C(=N\\NC(=N)N)c1ccc(NC(=O)Nc2ccc(/C=C/C3CCCCC3)cc2)cc1"
test_system = "Staphylococcus aureus"
measured_endpoint = "MIC"
unit_symbol = "µg/mL"
reported = 8

[[record]]
molecule_smiles = "C/C(=N\\NC(=N)N)c1ccc(NC(=O)Nc2ccc(/C=C/c3ccccc3)cc2)cc1"
test_system = "Staphylococcus aureus"
measured_endpoint = "MIC"
unit_symbol = "µg/mL"
reported = 8

